Assay remarks: Cytotoxicity against DENV serotype 2 strain New Guinea C infected african green monkey Vero B cells by virus yield-reduction assay
Type: cell-based
Condition details: chlorocebus sabaeus
Property name: CC50

For the molecule NC(=O)c1ncn([C@@H]2O[C@H](CO)[C@@H](O)[C@H]2O)n1 [RIBAVIRIN] , what CC50 is on record?
> 410 µM

Name the recorded CC50 for Oc1ccc(/C=N/Nc2nc(-c3ccc(-c4ccccc4)cc3)cs2)cc1 .
> 135 µM

Entry C(=N\Nc1nc(-c2ccc(-c3ccccc3)cc2)cs1)/c1ccccc1 has what CC50?
> 141 µM

---

Assay remarks: Selectivity index, CC50 for african green monkey Vero B cells to EC50 for DENV serotype 2 strain New Guinea C by virus yield-reduction assay
Type: toxicity, cell-based
Condition details: read-out: Selectivity Index
Property name: selectivity ratio

Reported selectivity ratio, compound C(=N\Nc1nc(-c2ccc(-c3ccccc3)cc2)cs1)/c1ccccc1 : ____
> 1

selectivity ratio lookup needed for NC(=O)c1ncn([C@@H]2O[C@H](CO)[C@@H](O)[C@H]2O)n1 [RIBAVIRIN] , thanks.
> 9

Please report the recorded selectivity ratio for Oc1ccc(/C=N/Nc2nc(-c3ccc(-c4ccccc4)cc3)cs2)cc1 .
> 25

Numbers sourced from ChEMBL document CHEMBL3400080.
